System: human TTR gene
Assay: Editing activity in human primary hepatocytes (gRNA + ABE8.8 mRNA co-transfection, NGS of PCR amplicons)
Type: cell-based
Details: 625 ng/RNA/mL, rep 2
PARAMETER MEASURED: Human hepatocytes - Editing %, 625, rep 2 (%)
Numbers only, in %.

>  <MOLECULE>
GA461: Human/Cyno TTR guide RNA, spacer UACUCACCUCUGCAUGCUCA, gRNA SEQ ID NO: 15 (nucleic acid, chemistry not given here) guide: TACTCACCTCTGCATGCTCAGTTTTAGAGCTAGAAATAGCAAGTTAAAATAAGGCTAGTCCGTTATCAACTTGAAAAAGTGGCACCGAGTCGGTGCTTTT

>  <VALUE MEASURED>
22.31

$$$$
>  <MOLECULE>
GA459: Human TTR guide RNA, spacer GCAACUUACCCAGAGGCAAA, gRNA SEQ ID NO: 13 (nucleic acid, chemistry not given here) guide: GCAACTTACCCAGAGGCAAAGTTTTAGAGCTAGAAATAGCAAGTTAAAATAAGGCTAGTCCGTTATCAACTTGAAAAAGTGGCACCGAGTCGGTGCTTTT

>  <VALUE MEASURED>
3.89

$$$$
>  <MOLECULE>
GA457: Human TTR guide RNA, spacer GCCAUCCUGCCAAGAAUGAG, gRNA SEQ ID NO: 11 (nucleic acid, chemistry not given here) guide: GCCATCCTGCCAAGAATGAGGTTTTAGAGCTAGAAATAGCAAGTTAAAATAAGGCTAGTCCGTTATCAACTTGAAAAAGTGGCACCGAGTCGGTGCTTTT

>  <VALUE MEASURED>
15.39

$$$$

Now take the following molecule into account.
Entry GA460: Human/Cyno TTR guide RNA, spacer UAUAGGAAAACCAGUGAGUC, gRNA SEQ ID NO: 14 (nucleic acid, chemistry not given here) guide: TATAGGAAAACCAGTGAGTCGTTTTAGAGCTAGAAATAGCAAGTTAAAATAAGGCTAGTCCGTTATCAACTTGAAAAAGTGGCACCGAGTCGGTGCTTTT , Human hepatocytes - Editing %, 625, rep 2 reported as 22.27

Data origin: patent US20240124536A1
